Here, each record is paired with measured activity change, negative = inhibition data.
experiment: AP1 Signaling Pathway (AID 357); settings: ME-180 AP-1-bla reporter, EGF-induced, beta-lactamase ratio, 5 h; at 7.69 µM (top of the series) unless noted;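 note: ME-180 reporter cells stimulated with EGF at its EC50 level; % is set by controls: 0 for no effect and ±100 for the full control effect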
Records with an inconclusive call do not appear. Active and inactive are the calls of the source. Calls come from the whole dose curve; as a rule, active = well fitted curve in either direction with a large enough effect (not every such curve was filed as active); inconclusive = small, poorly fitted or top-dose-only effect, or another doubt; inactive = flat fitted curve, though single readings scatter.

[[record]]
structure_notation = "COc1ccccc1-c1nc(NCCN2CCOCC2)c2ccccc2n1"
result = "7.09% (inactive)"


If you can, please state the reported activity change, negative = inhibition value of COc1ccc(C(=O)N2CCC3(CCN(Cc4cc(C(F)(F)F)cc(C(F)(F)F)c4)CC3)CC2)cc1 . 7.47% (inactive)

If you can, please state the reported activity change, negative = inhibition value of COCCn1c(=O)c(-c2ccccc2)nc2cnc(N(C)C)nc21 . -2% (inactive)

If you can, please state the reported activity change, negative = inhibition value of Cn1c(=O)c2c(ncn2C[C@@H](O)CO)n(C)c1=O . 9.72% [at 17.2 µM] (inactive)

If you can, please state the reported activity change, negative = inhibition value of Cc1noc(C)c1C(=O)N1CCC2(CC1)CN(Cc1cc(C(F)(F)F)cc(C(F)(F)F)c1)C2 . -7.95% (inactive)

If you can, please state the reported activity change, negative = inhibition value of COCCNc1ncnc2ccc(-c3ccccc3CN(C)C)cc12 . -22.6% (inactive)

If you can, please state the reported activity change, negative = inhibition value of COc1ccccc1-c1cc(NCc2cnc(C)cn2)ncn1 . 5.08% (inactive)

If you can, please state the reported activity change, negative = inhibition value of O=C(c1cc(C(F)(F)F)cc(C(F)(F)F)c1)N1CCC2(CCCN(c3ccccn3)C2)CC1 . 10.7% (inactive)

If you can, please state the reported activity change, negative = inhibition value of O=C(c1cnccn1)N1CCC2(CC1)CN(c1ccccc1)C2 . -9.4% (inactive)

If you can, please state the reported activity change, negative = inhibition value of Cc1noc(C)c1C(=O)N1CCC[C@@]2(CCN(Cc3ccc(C#N)cc3)C2)C1 . -6.54% (inactive)

====

assay: Stat Signaling Pathway (AID 446); settings: ME-180 (cervical carcinoma) SIE beta-lactamase reporter, IL-6 stimulated, 5 h; at 7.69 µM (top of the series) unless noted;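 note: ME-180 cervical cancer cells given 40 pM IL-6 alongside compound; SIE-controlled beta-lactamase reporter measured as 460/530 nm FRET emission ratio; % is set by controls: 0 for no effect and ±100 for the full control effect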
Results filed as inconclusive are left out. Active and inactive are the calls of the source. The call rests on the fitted dose curve; in most records, active means well fitted curve in either direction with a large enough effect (not every such curve was filed as active); inconclusive means small, poorly fitted or top-dose-only effect, or another doubt; inactive means flat fitted curve, though single readings scatter.
Measure: activity, negative = inhibition

Below, each entry is followed by its recorded activity, negative = inhibition result.
[[record]]
structure_notation = "CC(C)N1CCN(c2ccc(OC[C@@H]3CO[C@@](Cn4cncn4)(c4ccc(Cl)cc4Cl)O3)cc2)CC1"
result = "1.27% [at 17.2 µM] (inactive)"

[[record]]
structure_notation = "COc1ncc2nc(-c3ccc(Cl)cc3)c(=O)n(Cc3cccs3)c2n1"
result = "-18.3% (inactive)"

[[record]]
structure_notation = "O=C(c1cnccn1)N1CCC2(CCCN(c3ccncc3)C2)CC1"
result = "-6.12% (inactive)"

[[record]]
structure_notation = "CC(=O)NCCNc1ccnc(-c2ccccc2C)n1"
result = "8.94% (inactive)"

[[record]]
structure_notation = "CN(Cc1ccco1)c1ncncc1-c1ccccc1C(F)(F)F"
result = "-2.15% (inactive)"

[[record]]
structure_notation = "COCCn1c(=O)c(-c2ccccc2)nc2cnc(Nc3cccc(OC)c3)nc21"
result = "-18.3% (inactive)"


If you can, please state the reported activity, negative = inhibition value of COc1ccc(CNc2nc(-c3cccc(C#N)c3)nc3ccccc23)c(OC)c1 . -10.1% (inactive)

If you can, please state the reported activity, negative = inhibition value of COC(=O)N1CCC[C@@]2(CCN(C(=O)NC(C)C)C2)C1 . 8.06% (inactive)

If you can, please state the reported activity, negative = inhibition value of COc1cccc(-c2ccc3ncnc(N4CCOCC4)c3c2)c1 . 8.65% (inactive)

If you can, please state the reported activity, negative = inhibition value of CN1CCCC2(CCN(C(=O)c3cccc(F)c3)CC2)C1 . 6.64% (inactive)

====

target: Glucocorticoid receptor (Homo sapiens) (UniProt P04150); assay: GR-EFC Redistribution (AID 451); conditions: CHO-K1 GR-EFC translocation, beta-gal luminescence, 2 h; note: potency is the fitted concentration of half-maximal effect
Sequence (P04150 whole entry, looked up): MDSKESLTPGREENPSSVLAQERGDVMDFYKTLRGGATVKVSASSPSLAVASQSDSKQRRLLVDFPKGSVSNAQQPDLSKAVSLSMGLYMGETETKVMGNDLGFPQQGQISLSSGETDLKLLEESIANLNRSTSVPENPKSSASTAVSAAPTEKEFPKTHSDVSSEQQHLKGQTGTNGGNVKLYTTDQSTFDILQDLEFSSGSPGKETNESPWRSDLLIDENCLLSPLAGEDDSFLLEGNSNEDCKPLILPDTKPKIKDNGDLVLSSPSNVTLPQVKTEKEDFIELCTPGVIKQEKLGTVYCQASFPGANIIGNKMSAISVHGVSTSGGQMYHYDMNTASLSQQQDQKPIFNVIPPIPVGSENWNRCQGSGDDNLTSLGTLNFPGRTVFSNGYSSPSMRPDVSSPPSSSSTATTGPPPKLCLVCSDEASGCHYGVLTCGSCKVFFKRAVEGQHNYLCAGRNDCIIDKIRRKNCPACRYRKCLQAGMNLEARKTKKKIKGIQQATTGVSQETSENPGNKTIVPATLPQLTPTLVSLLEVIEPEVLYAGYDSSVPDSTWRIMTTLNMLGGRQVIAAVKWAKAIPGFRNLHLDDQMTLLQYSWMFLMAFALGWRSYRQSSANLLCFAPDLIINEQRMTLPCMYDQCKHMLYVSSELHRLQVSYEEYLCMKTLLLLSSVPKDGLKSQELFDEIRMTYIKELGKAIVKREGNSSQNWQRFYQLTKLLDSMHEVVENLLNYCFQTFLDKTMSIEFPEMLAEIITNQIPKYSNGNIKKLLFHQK
The source made the active and inactive calls. Calls follow the shape of the full dose curve.
Here, each record is paired with measured Potency data.

Below, each entry is followed by its recorded Potency result.
[[record]]
structure_notation = "N#CCCn1c(=O)c(-c2ccccc2)nc2cnc(N3CCOCC3)nc21"
measure = "Potency"
result = "> 46 µM (inactive)"

[[record]]
structure_notation = "Cc1cccc(CNc2cc(-c3ccccc3C)ncn2)c1"
measure = "Potency"
result = "> 46 µM (inactive)"

[[record]]
structure_notation = "COCCn1c(=O)c(-c2ccc(Cl)cc2)nc2cnc(N3CCOCC3)nc21"
measure = "Potency"
result = "> 46 µM (inactive)"


// moving on: another record for Potency
If you can, please state the reported Potency value of O=C(c1ccncc1)N1CCC[C@@]2(CCN(C(c3ccccc3)c3ccccc3)C2)C1 . > 46 µM (inactive)

====

tested on: ATS189; experiment: qHTS profiling for inhibitors of Plasmodium falciparum proliferation (AID 504749); note: nearly all actives have a fitted effect of over 60% in size; details: P. falciparum in erythrocytes, SYBR Green DNA, 72 h; series mostly up to 12.8 µM
Results filed as inconclusive are left out. Calls of active or inactive are those of the source. Calls come from the whole dose curve; as a rule, active = well fitted inhibition curve with a large enough effect; inconclusive = small, poorly fitted or top-dose-only effect; inactive = flat fitted curve, though single readings scatter.
Output constraint: value belongs to active, inactive

[[record]]
compound = "CN(N=O)C(=O)N[C@H]1[C@@H](O)[C@H](O)[C@H](CO)O[C@@H]1O"
discrete_label = "inactive"

[[record]]
compound = "O=c1[nH]c(=O)n([C@@H]2C[C@H](O)[C@H](CO)O2)cc1I"
discrete_label = "inactive"

[[record]]
compound = "CC(C)(C)NC[C@H](O)c1cc(O)cc(O)c1"
discrete_label = "inactive"


What call does the record list for NC(=O)c1cc[n+](CC2=C(C(=O)O)N3C(=O)[C@@H](NC(=O)[C@H](c4ccccc4)S(=O)(=O)[O-])[C@@H]3SC2)cc1 ? active

What call does the record list for CN[C@@H]1[C@H](O[C@@H]2O[C@H](CO)[C@@H](N)[C@H](O)[C@@H]2O)O[C@H]2C[C@@H](N)[C@@H](O[C@H]3[C@@H](O)[C@H](O)[C@H](N)C[C@@H]3N)O[C@H]2[C@H]1O ? inactive

What call does the record list for COc1c(O)cc2c(c1O)[C@@H]1O[C@@H](CO)[C@@H](O)[C@@H](O)[C@@H]1OC2=O ? inactive

What call does the record list for C[N+](C)(C)CC(O)CC(=O)O (configuration not stated) ? inactive

What call does the record list for CN(C)[C@H]1C(=O)C(C(=O)NCN2CCCC2)=C(O)[C@]2(O)C(=O)C3=C(O)c4c(O)cccc4[C@@](C)(O)[C@H]3C[C@@H]12 ? inactive

What call does the record list for CC1(C)Oc2ccc(C#N)cc2[C@H](N2CCCC2=O)[C@H]1O ? inactive

What call does the record list for COc1ccc(C[C@@H]2c3cc(OC)c(OC)cc3CC[N@+]2(C)CCC(=O)OCCCCCOC(=O)CC[N@@+]2(C)CCc3cc(OC)c(OC)cc3[C@H]2Cc2ccc(OC)c(OC)c2)cc1OC ? inactive

What call does the record list for N[C@@H](CO)C(=O)NNCc1ccc(O)c(O)c1O ? inactive

====

biological target: Glucocorticoid receptor (Homo sapiens) (UniProt P04150); test: GR-EFC Redistribution (AID 451); conditions: CHO-K1 GR-EFC translocation, beta-gal luminescence, 2 h; note: potency is the fitted concentration of half-maximal effect
Active and inactive are the calls of the source. Calls follow the shape of the full dose curve.
Measure: Potency

Below, each entry is followed by its recorded Potency result.
[[record]]
structure_notation = "CCNc1ncc2nc(-c3cccs3)c(=O)n(C[C@H]3CCCO3)c2n1"
measure = "Potency"
result = "> 46 µM (inactive)"

[[record]]
structure_notation = "COCCn1c(=O)c(-c2cccc(C#N)c2)nc2cnc(Oc3ccc(OC)cc3)nc21"
measure = "Potency"
result = "> 46 µM (inactive)"

[[record]]
structure_notation = "CS(=O)(=O)Nc1cccc(-c2cncnc2NCc2ccccc2)c1"
measure = "Potency"
result = "> 46 µM (inactive)"


If you can, please state the reported Potency value of COc1ccc2[nH]cc(CCNc3cc(-c4ccccc4CN(C)C)ncn3)c2c1 . > 46 µM (inactive)

If you can, please state the reported Potency value of Cn1cc(-c2nc3cnc(N4CCNCC4)nc3n(Cc3ccc(F)cc3)c2=O)c2ccccc21 . > 46 µM (inactive)

If you can, please state the reported Potency value of CN1CC[C@@]2(CCCN(C(=O)c3cc(C(F)(F)F)cc(C(F)(F)F)c3)C2)C1 . > 46 µM (inactive)

If you can, please state the reported Potency value of CN1CC[C@@]2(CCCN(C(=O)c3cccn3C)C2)C1 . > 46 µM (inactive)

If you can, please state the reported Potency value of Cc1noc(C)c1-c1nccc(N2CCN(C)CC2)n1 . > 46 µM (inactive)

If you can, please state the reported Potency value of O=C(Oc1ccccc1)N1CCC[C@@]2(CCN(c3ccccc3)C2)C1 . > 46 µM (inactive)

If you can, please state the reported Potency value of Cn1cc(-c2nc3cnc(Oc4ccccc4)nc3n(Cc3cccs3)c2=O)c2ccccc21 . > 46 µM (inactive)
